I'd appreciate it if you could supply pKi values for the items below.
- tested on: UniProt:P08909
- Sequence (P08909 whole entry): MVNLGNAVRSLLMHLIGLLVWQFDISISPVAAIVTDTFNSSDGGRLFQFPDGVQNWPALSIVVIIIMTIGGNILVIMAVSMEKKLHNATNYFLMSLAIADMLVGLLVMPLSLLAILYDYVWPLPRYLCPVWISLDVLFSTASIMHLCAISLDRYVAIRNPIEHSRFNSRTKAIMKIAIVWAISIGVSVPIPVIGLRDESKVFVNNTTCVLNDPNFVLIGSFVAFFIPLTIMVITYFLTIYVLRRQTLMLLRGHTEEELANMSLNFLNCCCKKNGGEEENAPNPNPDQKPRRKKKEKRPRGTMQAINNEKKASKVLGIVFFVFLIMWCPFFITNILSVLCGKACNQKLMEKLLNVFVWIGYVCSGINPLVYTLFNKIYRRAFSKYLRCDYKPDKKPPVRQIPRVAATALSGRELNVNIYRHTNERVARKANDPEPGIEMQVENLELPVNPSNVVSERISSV
- assay summary: Binding affinity against 5-hydroxytryptamine 1C receptor
pKi: −log10 of the molar value.

Entry c1ccc(CC2CCNCC2)cc1 , system UniProt:P08909: what pKi was measured?
< 5.00

Entry CN1CCC(Cc2ccccc2)CC1.Cl , system UniProt:P08909: what pKi was measured?
< 5.00

Cited source: ChEMBL document CHEMBL1125570
